# GI50 listing for each entry below
tested on: AU565 (Her2 amp); assay: Growth inhibition GI50 in vitro (CCK8/MTT, 72 h); assay type: cell-based, human; settings: Homo sapiens, AU565; HER2 positive cell line; range of GI50; read-out: GI50 AU-565

compound | target.system | readout | reading
C=CC(=O)Nc1cc(Nc2cc(Nc3ccc(F)c(Cl)c3)ncn2)c(OC)cc1N1CCC(N2CCOCC2)CC1 [Compound 143] | AU565 (Her2 amp) | GI50 | < 0.01 µM
C=CC(=O)Nc1cc(Nc2nccc(-n3ccc4cc(C)ccc43)n2)c(OC)cc1N(C)CCN(C)C [Compound 77] | AU565 (Her2 amp) | GI50 | 0.1 to 1 µM

Summary line: C=CC(=O)Nc1cc(Nc2cc(Nc3cccc(C(F)(F)F)c3)ncn2)c(OC)cc1N(C)CCN(C)C [Compound 134] , AU565 (Her2 amp), reported GI50 = 0.01 to 0.1 µM

AU565 (Her2 amp) GI50 of C=CC(=O)Nc1cc(Nc2cc(Nc3ccc(F)c(Cl)c3)ncn2)c(OC)cc1N1CCCN(C)CC1 [Compound 144] is < 0.01 µM

###

test system: AU565 (Her2 amp); assay: Growth inhibition GI50 in vitro (CCK8/MTT, 72 h); format: cell-based, human; details: Homo sapiens, AU565; HER2 positive cell line; range of GI50; read-out: GI50 AU-565
readout: GI50

// below: answered molecules
compound.structure.string | reading
C=CC(=O)Nc1cc(Nc2cc(-c3cn(C)c4cc(F)ccc34)ncn2)c(OC)cc1N(C)CCN(C)C | 0.01 to 0.1 µM
C=CC(=O)Nc1cc(Nc2nccc(-n3ccc4c(C)cccc43)n2)c(OC)cc1N(C)CCN(C)C | 0.1 to 1 µM
C=CC(=O)Nc1cc(Nc2cc(-c3cn(C4CCCC4)c4ccc(F)cc34)ncn2)c(OC)cc1N(C)CCN(C)C | 0.1 to 1 µM
C=CC(=O)Nc1cc(Nc2nccc(N3CCc4ccccc43)n2)c(OC)cc1N(C)CCN(C)C | 0.1 to 1 µM

GI50 recorded for this molecule, C=CC(=O)Nc1cc(Nc2cc(Nc3cccc(Br)c3)ncn2)c(OC)cc1N(C)CCN(C)C , is < 0.01 µM

###

test system: NCI-H1781 (HER2 exon 20 G776VC mutation); assay: Growth inhibition GI50 in vitro (CCK8/MTT, 72 h); type: cell-based; details: Homo sapiens, NCI-H1781; Table 16; 1000 nM to 0.03 nM serial dilution; read-out: GI50 H1781 (HER2 G776VC)
readout: log10 of GI50 (log10 of the value in nM)
Each number you see is log10 of GI50, and the unit inside the log is nM.

Reference set, count: 6
compound | log10 of GI50
CN(C)C/C=C/C(=O)Nc1cc2c(Nc3ccc(F)c(Cl)c3)ncnc2cc1O[C@H]1CCOC1 [Afatinib, reference compound] | 0.07
C=CC(=O)Nc1cc(Nc2nccc(-n3ccc4c(OCCOC)cccc43)n2)c(OC)cc1N(C)CCN(C)C [Compound 205] | 0.18
C=CC(=O)Nc1cc(Nc2nccc(-n3ccc4c(OC)cc(Br)cc43)n2)c(OC)cc1N(C)CCN(C)C [Compound 211] | 1.50
C=CC(=O)Nc1cc(Nc2cc(Nc3cc(C(F)(F)F)ccc3F)ncn2)c(OC)cc1N(C)CCN(C)C [Compound 231] | 0.25
C=CC(=O)Nc1cc(Nc2cc(Nc3cc(OC)cc(C(F)(F)F)c3)ncn2)c(OC)cc1N(C)CCN(C)C [Compound 232] | 0.01
C=CC(=O)Nc1cc(Nc2cc(Nc3cc(C(F)(F)F)ccc3OC)ncn2)c(OC)cc1N(C)CCN(C)C [Compound 233] | -0.06

Input C=CC(=O)Nc1cc(Nc2cc(Nc3cc(F)cc(C(F)(F)F)c3)ncn2)c(OC)cc1N(C)CCN(C)C [Compound 230] . Output log10 of GI50: 0.28

C=CC(=O)Nc1cc(Nc2cc(Nc3cc(OC)c(Cl)cc3Cl)ncn2)c(OC)cc1N(C)CCN(C)C [Compound 136] has a reported log10 of GI50 of 0.86
